Target: Dihydroorotate dehydrogenase (Plasmodium falciparum)
Sequence (Q54A96 whole entry): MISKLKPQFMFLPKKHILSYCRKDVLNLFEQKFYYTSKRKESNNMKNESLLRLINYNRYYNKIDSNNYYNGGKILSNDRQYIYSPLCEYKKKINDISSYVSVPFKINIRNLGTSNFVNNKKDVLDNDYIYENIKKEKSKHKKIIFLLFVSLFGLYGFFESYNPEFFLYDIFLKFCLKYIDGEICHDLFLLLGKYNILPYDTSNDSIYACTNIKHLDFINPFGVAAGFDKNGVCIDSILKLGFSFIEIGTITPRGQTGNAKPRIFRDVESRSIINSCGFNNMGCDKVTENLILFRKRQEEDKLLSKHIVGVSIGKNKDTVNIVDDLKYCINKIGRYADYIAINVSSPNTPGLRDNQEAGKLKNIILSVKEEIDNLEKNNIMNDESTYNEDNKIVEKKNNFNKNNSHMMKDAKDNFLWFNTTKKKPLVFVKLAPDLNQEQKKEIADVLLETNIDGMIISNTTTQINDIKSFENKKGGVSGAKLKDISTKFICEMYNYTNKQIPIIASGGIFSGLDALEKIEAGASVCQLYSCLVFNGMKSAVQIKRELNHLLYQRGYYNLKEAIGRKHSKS
Attribute measured: Ki

| Molecule | Attribute measured | Measured result |
| --- | --- | --- |
| O=C1C(O)=C([C@H]2CC[C@H](c3ccc(Cl)cc3)CC2)C(=O)c2ccccc21 | Ki | 27 µM |
